# System: Candida albicans
# assay-notes: Binding affinity to Candida albicans CaMdr1p expressed in yeast AD1-8u
Active and inactive are the calls of the source. No rule for the calls is given here.
Classes used: active, inactive

{"molecule": "COc1ccc2c3c([nH]c2c1)[C@H](C=C(C)C)N1C(=O)[C@@H]2CCCN2C(=O)[C@@H]1C3", "qualitative-label": "inactive"}
{"molecule": "CC[C@@]1(O)C(=O)OCc2c1cc1n(c2=O)Cc2cc3c(CN(C)C)c(O)ccc3nc2-1", "qualitative-label": "inactive"}
{"molecule": "Clc1ccccc1C(c1ccccc1)(c1ccccc1)n1ccnc1", "qualitative-label": "inactive"}
{"molecule": "COC(=O)[C@@H]1[C@H]2C[C@H]3c4[nH]c5ccccc5c4CCN3C[C@@H]2CC[C@@H]1O.Cl [YOHIMBINE HYDROCHLORIDE]", "qualitative-label": "active"}

* * *

# Tested on: Saccharomyces cerevisiae; also: test concentration or dose not given here
# assay-notes: Antifungal activity against yeast AD1-8u expressing Candida albicans CaCdr1p by agar disk diffusion assay
# Format: functional

{"compound": "Clc1ccc(COC(Cn2ccnc2)c2ccc(Cl)cc2Cl)c(Cl)c1 (stereo not drawn) [MICONAZOLE]", "system-tested": "Saccharomyces cerevisiae", "display-unit": "cm", "inhibition zone (IZ)": 0.5}
{"compound": "C[C@@H]1C[C@H]2[C@@H]3CCC4=CC(=O)C=C[C@]4(C)[C@@]3(F)[C@@H](O)C[C@]2(C)[C@@]1(O)C(=O)CO [DEXAMETHASONE]", "system-tested": "Saccharomyces cerevisiae", "display-unit": "cm", "inhibition zone (IZ)": 0.9}
{"compound": "c1ccc(C(c2ccccc2)(c2ccccc2)c2ncc[nH]2)cc1 [TRITYL IMIDAZOLE]", "system-tested": "Saccharomyces cerevisiae", "display-unit": "cm", "inhibition zone (IZ)": 1.3}
{"compound": "O=c1c(O)c(-c2ccc(O)c(O)c2)oc2cc(O)cc(O)c12 [QUERCETIN]", "system-tested": "Saccharomyces cerevisiae", "display-unit": "cm", "inhibition zone (IZ)": 0}
{"compound": "C[C@]12CC[C@@H]3c4ccc(OS(=O)(=O)O)cc4CC[C@H]3[C@@H]1CCC2=O [ESTRONE SULFURIC ACID]", "system-tested": "Saccharomyces cerevisiae", "display-unit": "cm", "inhibition zone (IZ)": 0}
{"compound": "COc1ccc(CCN(C)CCCC(C#N)(c2ccc(OC)c(OC)c2)C(C)C)cc1OC (stereo not drawn)", "system-tested": "Saccharomyces cerevisiae", "display-unit": "cm", "inhibition zone (IZ)": 0.9}
{"compound": "CO[C@H]1/C=C/O[C@@]2(C)Oc3c(C)c(O)c4c(O)c(c(/C=N/N5CCN(C)CC5)c(O)c4c3C2=O)NC(=O)/C(C)=C\\C=C\\[C@H](C)[C@H](O)[C@@H](C)[C@@H](O)[C@@H](C)[C@H](OC(C)=O)[C@@H]1C [RIFAMPIN]", "system-tested": "Saccharomyces cerevisiae", "display-unit": "cm", "inhibition zone (IZ)": 0}
{"compound": "N#CC(C#N)=NNc1cccc(Cl)c1 [CARBONYL CYANIDE M-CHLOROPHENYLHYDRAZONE]", "system-tested": "Saccharomyces cerevisiae", "display-unit": "cm", "inhibition zone (IZ)": 0}
{"compound": "OC(Cn1cncn1)(Cn1cncn1)c1ccc(F)cc1F [FLUCONAZOLE]", "system-tested": "Saccharomyces cerevisiae", "display-unit": "cm", "inhibition zone (IZ)": 2.3}
{"compound": "Nc1nc(=O)[nH]cc1F [FLUCYTOSINE]", "system-tested": "Saccharomyces cerevisiae", "display-unit": "cm", "inhibition zone (IZ)": 0}
{"compound": "COc1ccc2c3c([nH]c2c1)[C@H](C=C(C)C)N1C(=O)[C@@H]2CCCN2C(=O)[C@@H]1C3 [FUMITREMORGIN]", "system-tested": "Saccharomyces cerevisiae", "display-unit": "cm", "inhibition zone (IZ)": 0}
{"compound": "CON(C)C(=O)Nc1ccc(Br)c(Cl)c1 [CHLORBROMURON]", "system-tested": "Saccharomyces cerevisiae", "display-unit": "cm", "inhibition zone (IZ)": 0.9}
{"compound": "CN(Cc1cnc2nc(N)nc(N)c2n1)c1ccc(C(=O)N[C@@H](CCC(=O)O)C(=O)O)cc1 [METHOTREXATE]", "system-tested": "Saccharomyces cerevisiae", "display-unit": "cm", "inhibition zone (IZ)": 0.1}
{"compound": "CN(C)C(=O)Nc1ccc(Cl)c(Cl)c1 [DCMU]", "system-tested": "Saccharomyces cerevisiae", "display-unit": "cm", "inhibition zone (IZ)": 0.8}
{"compound": "COc1cccc2c1C(=O)c1c(O)c3c(c(O)c1C2=O)C[C@@](O)(C(=O)CO)C[C@@H]3O[C@H]1C[C@H](N)[C@H](O)[C@H](C)O1 [DOXORUBICIN]", "system-tested": "Saccharomyces cerevisiae", "display-unit": "cm", "inhibition zone (IZ)": 0.4}
{"compound": "C[C@@H](c1ncncc1F)[C@](O)(Cn1cncn1)c1ccc(F)cc1F [VORICONAZOLE]", "system-tested": "Saccharomyces cerevisiae", "display-unit": "cm", "inhibition zone (IZ)": 1.9}
{"compound": "O=P1(N(CCCl)CCCl)NCCCO1 (stereo not drawn) [CYCLOPHOSPHAMIDE ANHYDROUS]", "system-tested": "Saccharomyces cerevisiae", "display-unit": "cm", "inhibition zone (IZ)": 0}
{"compound": "CCN(CC)C(=S)SSC(=S)N(CC)CC", "system-tested": "Saccharomyces cerevisiae", "display-unit": "cm", "inhibition zone (IZ)": 0.4}
{"compound": "c1ccc(CNc2ncnc3[nH]cnc23)cc1 [6-BENZYLAMINOPURINE]", "system-tested": "Saccharomyces cerevisiae", "display-unit": "cm", "inhibition zone (IZ)": 0}
{"compound": "COc1ccc2c(c1)c(CC(=O)O)c(C)n2C(=O)c1ccc(Cl)cc1 [INDOMETHACIN]", "system-tested": "Saccharomyces cerevisiae", "display-unit": "cm", "inhibition zone (IZ)": 0}
{"compound": "CCCCNC(=O)n1c(NC(=O)OC)nc2ccccc21 [BENOMYL]", "system-tested": "Saccharomyces cerevisiae", "display-unit": "cm", "inhibition zone (IZ)": 0.9}
{"compound": "COc1ccc2cc3[n+](cc2c1OC)CCc1cc2c(cc1-3)OCO2.[Cl-] [BERBERINE CHLORIDE]", "system-tested": "Saccharomyces cerevisiae", "display-unit": "cm", "inhibition zone (IZ)": 0.5}
{"compound": "c1c[nH]cn1 [IMIDAZOLE]", "system-tested": "Saccharomyces cerevisiae", "display-unit": "cm", "inhibition zone (IZ)": 0}
{"compound": "CCC(=O)Nc1ccc(Cl)c(Cl)c1 [PROPANIL]", "system-tested": "Saccharomyces cerevisiae", "display-unit": "cm", "inhibition zone (IZ)": 0.3}
{"compound": "CC[C@]1(O)C[C@@H]2CN(CCc3c([nH]c4ccccc34)[C@@](C(=O)OC)(c3cc4c(cc3OC)N(C)[C@H]3[C@@](O)(C(=O)OC)[C@H](OC(C)=O)[C@]5(CC)C=CCN6CC[C@]43[C@@H]65)C2)C1 [VINBLASTINE]", "system-tested": "Saccharomyces cerevisiae", "display-unit": "cm", "inhibition zone (IZ)": 0.6}
{"compound": "C[C@@H]1C[C@@H]([C@H](O)CC2CC(=O)NC(=O)C2)C(=O)[C@@H](C)C1 [CYCLOHEXIMIDE]", "system-tested": "Saccharomyces cerevisiae", "display-unit": "cm", "inhibition zone (IZ)": 1.2}
{"compound": "CN(C/C=C/C#CC(C)(C)C)Cc1cccc2ccccc12 [TERBINAFINE]", "system-tested": "Saccharomyces cerevisiae", "display-unit": "cm", "inhibition zone (IZ)": 1.2}
{"compound": "O=[N+]([O-])c1cc[n+]([O-])c2ccccc12 [4-NITROQUINOLINE-1-OXIDE]", "system-tested": "Saccharomyces cerevisiae", "display-unit": "cm", "inhibition zone (IZ)": 0.3}
{"compound": "CCC[C@@H]1C[C@@H](C(=O)N[C@@H]([C@H]2O[C@H](SC)[C@H](O)[C@@H](O)[C@H]2O)[C@@H](C)O)N(C)C1 [LINCOMYCIN]", "system-tested": "Saccharomyces cerevisiae", "display-unit": "cm", "inhibition zone (IZ)": 0}
{"compound": "CC/N=c1\\cc2oc3cc(NCC)c(C)cc3c(-c3ccccc3C(=O)OCC)c-2cc1C.Cl [RHODAMINE 6G HYDROCHLORIDE]", "system-tested": "Saccharomyces cerevisiae", "display-unit": "cm", "inhibition zone (IZ)": 0.8}
{"compound": "CCCCCCCCCCCC(=O)OCCN(C)C", "system-tested": "Saccharomyces cerevisiae", "display-unit": "cm", "inhibition zone (IZ)": 0.4}
{"compound": "C=C[C@H]1CN2CC[C@H]1C[C@@H]2[C@@H](O)c1ccnc2ccc(OC)cc12 [QUINIDINE]", "system-tested": "Saccharomyces cerevisiae", "display-unit": "cm", "inhibition zone (IZ)": 0.8}
{"compound": "CC(=O)Nc1c2sscc-2n(C)c1=O [THIOLUTIN]", "system-tested": "Saccharomyces cerevisiae", "display-unit": "cm", "inhibition zone (IZ)": 0}

The measurements presented in this section are drawn from ChEMBL document CHEMBL1275276.
